test system: mouse p16Ink4a+/- lung fibroblasts (INKBRITE, bleomycin-injured); assay: percentage of GFP+ (p16Ink4a+) fibroblasts among all cells in well; higher = less depletion of p16Ink4a+ cells, active = 20 or less; conditions: 1 µM; 3 days
Screen size: about 1,800 compounds; about 50 (3%) showed activity. The full list was thinned out, with actives kept by preference.
Outcomes: 1 (yes) (active), 0 (no) (inactive)

molecule: CC(C)c1nc(CN(C)C(=O)N[C@@H](CCN2CCOCC2)C(=O)N[C@H](CC[C@H](Cc2ccccc2)NC(=O)OCc2cncs2)Cc2ccccc2)cs1 [Cobicistat]
test.system: mouse p16Ink4a+/- lung fibroblasts (INKBRITE, bleomycin-injured)
label.class: 0 (no)
--
molecule: CC(C)C[C@H](NC(=O)[C@H](CCc1ccccc1)NC(=O)CN1CCOCC1)C(=O)N[C@@H](Cc1ccccc1)C(=O)N[C@@H](CC(C)C)C(=O)[C@@]1(C)CO1
test.system: mouse p16Ink4a+/- lung fibroblasts (INKBRITE, bleomycin-injured)
label.class: 1 (yes)
--
molecule: COC[C@H](NC(=O)c1cnc(C)s1)C(=O)N[C@@H](COC)C(=O)N[C@@H](Cc1ccccc1)C(=O)C1(C)CO1 (some centres undefined)
test.system: mouse p16Ink4a+/- lung fibroblasts (INKBRITE, bleomycin-injured)
label.class: 1 (yes)
--
molecule: O=C(Cc1ccc(-c2ccc(OCCN3CCOCC3)cc2)cn1)NCc1ccccc1
test.system: mouse p16Ink4a+/- lung fibroblasts (INKBRITE, bleomycin-injured)
label.class: 0 (no)

* * *

system: mouse p16Ink4a+/- lung fibroblasts (INKBRITE, bleomycin-injured); test: percentage of GFP+ (p16Ink4a+) fibroblasts among all cells in well; higher = less depletion of p16Ink4a+ cells, active = 20 or less; conditions: 1 µM; 3 days
Where a name gives a salt, the structure may show the parent alone. About 50 (3%) of roughly 1,800 compounds showed activity. Many of the other results were omitted from the sample, so actives are more common in it than they were.
Classes used: active, inactive

compound: CC(=O)O[C@H]1C[C@@H]2CC[C@@H]3[C@H](CC[C@@]4(C)[C@H]3C[C@H]([N+]3(C)CCCCC3)[C@@H]4OC(C)=O)[C@@]2(C)C[C@@H]1N1CCCCC1 [Vecuronium]
test.system: mouse p16Ink4a+/- lung fibroblasts (INKBRITE, bleomycin-injured)
label.class: inactive
--
compound: OCCn1cc(-c2cnc3nnn(Cc4ccc5ncccc5c4)c3n2)cn1
test.system: mouse p16Ink4a+/- lung fibroblasts (INKBRITE, bleomycin-injured)
label.class: inactive
--
compound: CN(C)CCOC(c1ccccc1)c1ccccc1 [Diphenhydramine]
test.system: mouse p16Ink4a+/- lung fibroblasts (INKBRITE, bleomycin-injured)
label.class: inactive
--
compound: O=C(/C=C/c1cccc(S(=O)(=O)Nc2ccccc2)c1)NO [Belinostat]
test.system: mouse p16Ink4a+/- lung fibroblasts (INKBRITE, bleomycin-injured)
label.class: active
--
compound: COc1cccc2c1C(=O)c1c(O)c3c(c(O)c1C2=O)C[C@@](O)(C(=O)CO)C[C@@H]3O[C@H]1C[C@H](N)[C@H](O)[C@H](C)O1 [Doxorubicin]
test.system: mouse p16Ink4a+/- lung fibroblasts (INKBRITE, bleomycin-injured)
label.class: inactive
--
compound: COc1c(C)c(C(=O)c2ccc(N)c(C(=O)O)c2)n2ccccc12
test.system: mouse p16Ink4a+/- lung fibroblasts (INKBRITE, bleomycin-injured)
label.class: inactive
--
compound: Cc1cccc(C)c1OCC(C)N (stereo not given) [Mexiletine]
test.system: mouse p16Ink4a+/- lung fibroblasts (INKBRITE, bleomycin-injured)
label.class: inactive
--
compound: CC(C(=O)O)c1ccc2c(c1)[nH]c1ccc(Cl)cc12 (stereo not given) [Carprofen]
test.system: mouse p16Ink4a+/- lung fibroblasts (INKBRITE, bleomycin-injured)
label.class: inactive
--
compound: O=C(/C=C/c1ccccc1)NC(NC(=S)Nc1ccc(Cl)cc1)C(Cl)(Cl)Cl (stereo not given)
test.system: mouse p16Ink4a+/- lung fibroblasts (INKBRITE, bleomycin-injured)
label.class: inactive
--
compound: COc1ccc(-c2cc(=O)c3c(O)cc(O)cc3o2)cc1O [Diosmetin]
test.system: mouse p16Ink4a+/- lung fibroblasts (INKBRITE, bleomycin-injured)
label.class: inactive
--
compound: COc1cc(NC(=O)c2ccc(-c3ccc(Cl)cc3)o2)cc(OC)c1
test.system: mouse p16Ink4a+/- lung fibroblasts (INKBRITE, bleomycin-injured)
label.class: inactive
--
compound: N#CC[C@H](C1CCCC1)n1cc(-c2ncnc3[nH]ccc23)cn1 [Ruxolitinib]
test.system: mouse p16Ink4a+/- lung fibroblasts (INKBRITE, bleomycin-injured)
label.class: inactive
--
compound: O=C(O)C[C@H](O)C[C@H](O)/C=C/c1c(C2CC2)nc2ccccc2c1-c1ccc(F)cc1 [Pitavastatin Calcium]
test.system: mouse p16Ink4a+/- lung fibroblasts (INKBRITE, bleomycin-injured)
label.class: inactive
--
compound: Cc1cc(C#N)cc(C)c1Oc1nc(Nc2ccc(C#N)cc2)nc(N)c1Br [Etravirine]
test.system: mouse p16Ink4a+/- lung fibroblasts (INKBRITE, bleomycin-injured)
label.class: inactive
--
compound: O=C(O)c1cc(N=Nc2ccc(O)c(C(=O)O)c2)ccc1O [Olsalazine]
test.system: mouse p16Ink4a+/- lung fibroblasts (INKBRITE, bleomycin-injured)
label.class: inactive
--
compound: CC#C[C@]1(O)CC[C@H]2[C@@H]3CCC4=CC(=O)CCC4=C3[C@@H](c3ccc(N(C)C)cc3)C[C@@]21C [Mifepristone]
test.system: mouse p16Ink4a+/- lung fibroblasts (INKBRITE, bleomycin-injured)
label.class: inactive
--
compound: O=C(/C=C\n1cnc(-c2cc(C(F)(F)F)cc(C(F)(F)F)c2)n1)NNc1cnccn1 [Selinexor (KPT-330)]
test.system: mouse p16Ink4a+/- lung fibroblasts (INKBRITE, bleomycin-injured)
label.class: active
--
compound: C[C@H](Cn1cnc2c(N)ncnc21)OCP(=O)(O)O [Tenofovir]
test.system: mouse p16Ink4a+/- lung fibroblasts (INKBRITE, bleomycin-injured)
label.class: inactive
--
compound: CC(C)c1c(C(=O)Nc2ccccc2)c(-c2ccccc2)c(-c2ccc(F)cc2)n1CC[C@@H](O)C[C@@H](O)CC(=O)O [Atorvastatin]
test.system: mouse p16Ink4a+/- lung fibroblasts (INKBRITE, bleomycin-injured)
label.class: inactive
--
compound: O=S(=O)(c1cccc2cnccc12)N1CCCNCC1 [Fasudil Hydrochloride]
test.system: mouse p16Ink4a+/- lung fibroblasts (INKBRITE, bleomycin-injured)
label.class: inactive
--
compound: CC(C)OC(=O)OCOP(=O)(CO[C@H](C)Cn1cnc2c(N)ncnc21)OCOC(=O)OC(C)C [Tenofovir Disoproxil]
test.system: mouse p16Ink4a+/- lung fibroblasts (INKBRITE, bleomycin-injured)
label.class: inactive
--
compound: O=C[C@H](O)[C@@H](O)[C@H](O)[C@H](O)CO [D-glucose]
test.system: mouse p16Ink4a+/- lung fibroblasts (INKBRITE, bleomycin-injured)
label.class: inactive
--
compound: Nc1nccc(Oc2ccc(NC(=O)c3cncc(-c4ccc(F)cc4)c3O)cc2F)c1Cl
test.system: mouse p16Ink4a+/- lung fibroblasts (INKBRITE, bleomycin-injured)
label.class: inactive
--
compound: CN1CC[C@H](c2c(O)cc(O)c3c(=O)cc(-c4ccccc4Cl)oc23)[C@H](O)C1 [Flavopiridol]
test.system: mouse p16Ink4a+/- lung fibroblasts (INKBRITE, bleomycin-injured)
label.class: active
--
compound: O=C(/C=C\n1cnc(-c2cc(C(F)(F)F)cc(C(F)(F)F)c2)n1)N1CC(F)(F)C1
test.system: mouse p16Ink4a+/- lung fibroblasts (INKBRITE, bleomycin-injured)
label.class: inactive
--
compound: Cc1cc(N2CCOCC2)ccc1Nc1nc(NC2CCCCC2)c2[nH]cnc2n1
test.system: mouse p16Ink4a+/- lung fibroblasts (INKBRITE, bleomycin-injured)
label.class: inactive
--
compound: Cn1cc(/C=C/C(=O)c2cccc(F)c2)cc1/C=C/C(=O)NO
test.system: mouse p16Ink4a+/- lung fibroblasts (INKBRITE, bleomycin-injured)
label.class: inactive
--
compound: CC(/C=C/C(=O)NO)=C\[C@@H](C)C(=O)c1ccc(N(C)C)cc1 [Trichostatin A]
test.system: mouse p16Ink4a+/- lung fibroblasts (INKBRITE, bleomycin-injured)
label.class: active
--
compound: O=C(c1ccccc1)c1ccc2n1CCC2C(=O)O (stereo not given) [Ketorolac]
test.system: mouse p16Ink4a+/- lung fibroblasts (INKBRITE, bleomycin-injured)
label.class: inactive
--
compound: CN1CC[C@@H](c2c(O)cc(O)c3c(=O)cc(-c4ccccc4Cl)oc23)[C@@H]1CO
test.system: mouse p16Ink4a+/- lung fibroblasts (INKBRITE, bleomycin-injured)
label.class: inactive
--
compound: OC[C@H]1O[C@@H](n2cnc3c(O)ncnc32)[C@H](O)[C@@H]1O [Inosine]
test.system: mouse p16Ink4a+/- lung fibroblasts (INKBRITE, bleomycin-injured)
label.class: inactive
--
compound: O=c1c(-c2ccc(O)cc2)coc2cc(O)cc(O)c12 [Genistein]
test.system: mouse p16Ink4a+/- lung fibroblasts (INKBRITE, bleomycin-injured)
label.class: inactive
--
compound: Cn1c(N2CCCCS2(=O)=O)nc(C(=O)NCc2ccc(F)cc2)c(O)c1=O
test.system: mouse p16Ink4a+/- lung fibroblasts (INKBRITE, bleomycin-injured)
label.class: inactive
--
compound: CC(C)(C)C(=O)OCOP(=O)(COCCn1cnc2c(N)ncnc21)OCOC(=O)C(C)(C)C [Adefovir Dipivoxil]
test.system: mouse p16Ink4a+/- lung fibroblasts (INKBRITE, bleomycin-injured)
label.class: active
--
compound: O=C(NC1CCOCC1)c1ccc(-c2cc(-c3c[nH]nc3-c3ccccn3)ccn2)cc1
test.system: mouse p16Ink4a+/- lung fibroblasts (INKBRITE, bleomycin-injured)
label.class: inactive
